molecules and their reported TGI
# Tested on: KM12 colon
# Experimental protocol: NCI tumour cell line growth inhibition, 48 h

# Molecule, TGI
data = [
    ("COc1ccc(-c2nc(-c3cnccn3)n(Cc3ccccc3)n2)cc1", "> 100 µM"),
]

--- query ---
Noted for `COc1cc(/C=C/C(=N\NC(=S)NN)c2sc(NNC(C)=O)nc2C)ccc1O` : its TGI reads > 100 µM

###

# Test system: DLD-1 colon
# Experimental protocol: NCI tumour cell line growth inhibition, 48 h
The entries below come with measured TGI values attached.

Illustrative cases are given below, each with its answer.
# Molecule, TGI
records = [
    ("COc1ccc([C@H]2c3cc4c(cc3OC(O)(CO)[C@H]2C(=O)O)OCO4)c(OC)c1 (stereo partly drawn) (tested in a mixture with another compound)", "> 100 µM"),
    ("Cn1nc2ccc3nccc(NCCNCCO)c3c2n1", "> 100 µM"),
    ("c1ccc2c(c1)Sc1ccccc1N2C1CN2CCC1CC2 (stereo not drawn)", "29.6 µM"),
    ("CCOc1ccc(NCC2CC/C(=C\\c3ccc(Cl)cc3)C2=O)cc1 (stereo not drawn)", "26.6 µM"),
    ("CC#CC#C/C=C1\\C=CC2(OC=CC2OC(C)=O)O1 (stereo not drawn)", "34.3 µM"),
]

Summary line: `Cc1ccc(C#CS(=O)(=O)C(F)(F)F)cc1` , DLD-1 colon, reported TGI = > 100 µM

Lab note: molecule NC(CCc1ncc(-c2ccccc2)s1)C(=O)O (stereo not drawn) tested on DLD-1 colon; recorded TGI was > 100 µM

# lookup: N#Cc1cc([N+](=O)[O-])ccc1NC(=O)C(=O)C(C(=O)c1ccc2ccccc2c1)C1OCc2ccccc21 (stereo not drawn) on DLD-1 colon, TGI = 54.2 µM

Test item `O=C1CCNC(=O)NC1` ; DLD-1 colon; reported TGI was > 100 µM

###

# System: UACC-62 melanoma
# Experimental protocol: NCI tumour cell line growth inhibition, 48 h; in the data active means GI50 below about 0.43 µM; inactive means the rest
Please state which outcome applies, choosing from active, inactive

# Compound, Group label
measured = [
    ("CC(=O)Nc1ccc(-c2csc(Nc3cccc(-c4csc(-c5ccccc5)n4)c3)n2)cc1", "inactive"),
    ("Nc1nc(-c2ccc(Cl)cc2)cc(-c2ccc(Cl)cc2)c1-c1nc2ccccc2o1", "inactive"),
    ("COc1cc(OC)c(F)c(COc2cnc(Nc3cnn(CCO)c3)nc2)c1F", "inactive"),
    ("COc1cc(-c2nc(-c3ccc(-c4nc5ccc(F)cc5[nH]4)cc3)no2)cc(OC)c1OC", "inactive"),
    ("O=C(CCN1CCCC1)Nc1ccc2c(NCCc3ccccc3)c3ccccc3nc2c1", "active"),
]

Ask: Which outcome was entered for the compound `COc1ccc(C(=O)/C=C/c2cc(-c3ccc4c(c3)OCO4)n[nH]2)cc1OC` in this test?
Result: inactive

###

# System: NCI-H23 lung
# Experimental protocol: NCI tumour cell line growth inhibition, 48 h
Where a SMILES comes first, the peptide text is derived from it. Side-chain parts run from the residue outwards. The star is where a group is joined. Cbz = O=C(OCc1ccccc1)*; Boc = CC(C)(C)OC(=O)*
Here the recorded TGI is given for each entry.

# Compound, Test readout, Meas value
data = [
    ("CCN(CC)c1ccc2cc(C(N)=O)c(=Nc3ccc(F)cc3)oc2c1", "TGI", "> 100 µM"),
    ("CC(C)(C)OC(=O)NC(CCCCNC(=O)CNC(=O)OCc1ccccc1)C(=O)NC(CCCCNC(=O)CNC(=O)OCc1ccccc1)C(=O)NC(CCCCNC(=O)CNC(=O)OCc1ccccc1)C(=O)NC(CCCCNC(=O)CNC(=O)OCc1ccccc1)C(=O)O (stereo not given) (Boc-K([Gly-Cbz])K([Gly-Cbz])K([Gly-Cbz])K([Gly-Cbz])-OH; configuration not given here)", "TGI", "> 100 µM"),
    ("COc1ccc(-c2nnc(SCC(=O)Nc3ccc(C(=O)/C=C/c4cc(OC)c(OC)c(OC)c4)cc3)n2-c2ccccc2)cc1OC", "TGI", "> 10 µM"),
    ("OC(C1CCCCCCCCCC1)C(O)C1CCCCCCCCCC1 (stereo not given)", "TGI", "> 100 µM"),
    ("CCCCCCCCCCC[C@@H](C[C@H]1OC(=O)[C@H]1CCCCCC)OC(=O)[C@@H](CC(C)C)NC=O", "TGI", "67.4 µM"),
]

TGI measured on `CC(=O)Nc1ccc(-c2csc(Nc3cccc(-c4csc(-c5ccccc5)n4)c3)n2)cc1` = > 50 µM

In plain terms, COc1ccc(OC(C)C(=O)O)c2c1CCCC2=O (stereo not given) has a documented TGI of > 100 µM

Notebook: `COc1ccc(CCCN2c3ccccc3Sc3ccccc32)cc1` , TGI read as > 100 µM

get_value(item= `O=c1c2c(=NCCN3CCCC3)cc3c(=O)n(CCCN4CCOCC4)c(=O)c4ccc(c(O)n1CCCN1CCOCC1)c2c4-3` , readout=TGI) returns 0.627 µM

What the record says about `O=C1c2cccc3c(Cl)ccc(c23)C(=O)N1CCCN1CCN(CCCN2C(=O)c3cccc4c(Cl)ccc(c34)C2=O)CC1` : TGI is > 100 µM

// TGI lookup, compound = `O=C(Nc1ccc(Oc2ccc(NC(=O)Nc3ccc([N+](=O)[O-])cc3)cc2)cc1)Nc1ccc([N+](=O)[O-])cc1` , result: 30.8 µM

Looking up `O=C1NC(=O)[C@@H](c2c[nH]c3ccccc23)[C@@H]1c1c[nH]c2ccccc12` , I see its TGI listed as > 25 µM

TGI reading for CS(=O)(=O)OCC1CCCCCCCCCCC12SCCCS2 (stereo not given) : > 100 µM

Memo: CC(O)C(NC(=O)c1ccccc1)C(=O)N(Cc1ccccc1)Cc1ccccc1 (stereo not given) , reported TGI: > 100 µM

Reported TGI of `Cc1c2cccc-2c(OCCOC(=O)n2ccnc2)cc2c1[nH]c1ccccc12` : 6.31 µM
